This collection of values is drawn from PubChem BioAssay AID1159580.

method_description: chemical genetic growth profiling, strain panel (AID 1159580);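 also: tested at 20 µM; growth read once vehicle control cultures reached saturation at 30 °C; 1 = growth at the plate median or of vehicle wells; lower values mean less growth of the strain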
protocol_conditions: S. cerevisiae deletion strains, growth OD, locus YNL322C, strain KRE1 (second series), hits give low values
The whole screen tested about 5,500 compounds, of which about 2,000 (36%) were called active. Not shown: some 18% with an inconclusive outcome. The list shows a part of the results.
readout: normalized growth

>  <molecule>
C[C@H]1[C@H](C)CC[C@]2(C(=O)O)CC[C@]3(C)C(=CCC4[C@@]5(C)C[C@@H](O)[C@H](O)[C@@](C)(CO)C5CC[C@]43C)[C@H]12 (some centres undefined)

>  <quantitative_readout>
1.03

$$$$
>  <molecule>
COc1nc(NC(C)C)nc(NC(C)C)n1

>  <quantitative_readout>
1.02

$$$$
>  <molecule>
NCC(O)CC(=O)O (centres undefined)

>  <quantitative_readout>
0.958

$$$$
>  <molecule>
C[C@H]1[C@H](C)CC[C@]2(C(=O)O)CC[C@]3(C)C(=CCC4[C@@]5(C)C[C@@H](O)[C@H](O)[C@@](C)(CO)C5[C@H](O)C[C@]43C)[C@H]12 (some centres undefined)

>  <quantitative_readout>
0.98

$$$$
>  <molecule>
C[N+]1(C)C[C@H](O)[C@H](C(=O)[O-])C1

>  <quantitative_readout>
1.02

$$$$
>  <molecule>
CSc1nc(NC(C)C)nc(NC(C)C)n1

>  <quantitative_readout>
0.962

$$$$
>  <molecule>
CC1(C)S[C@@H]2C(N3C(=O)[C@@H](c4ccccc4)NC3(C)C)C(=O)N2[C@H]1C(=O)O (some centres undefined)

>  <quantitative_readout>
1.05

$$$$
>  <molecule>
CC(C)Nc1nc(Cl)nc(NC(C)C)n1

>  <quantitative_readout>
0.992

$$$$
>  <molecule>
C/C=C/CC(C)C(O)C1C(=O)NC(CC)C(=O)N(C)CC(=O)N(C)C(CC(C)C)C(=O)NC(C(C)C)C(=O)N(C)C(CC(C)C)C(=O)NC(C)C(=O)NC(C)C(=O)N(C)C(CC(C)C)C(=O)N(C)C(CC(C)C)C(=O)N(C)C(C(C)C)C(=O)N1C (centres undefined)

>  <quantitative_readout>
1.01

$$$$

* * *

method_description: chemical genetic growth profiling, strain panel (AID 1159580);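 also: tested at 20 µM; growth read once vehicle control cultures reached saturation at 30 °C; 1 = growth at the plate median or of vehicle wells; lower values mean less growth of the strain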
protocol_conditions: S. cerevisiae deletion strains, growth OD, locus YDL192W, strain arf1, hits give low values
In all, about 5,500 compounds went through this assay and about 2,000 (36%) were called active. Another 18% or so got no clear call; they are omitted. The list shows a part of the results.
Recorded normalized growth by entry

>  <compound>
C[C@@H](CO)NC(=O)C1C=C2c3cccc4[nH]cc(c34)C[C@H]2N(C)C1 (some centres undefined)

>  <normalized growth>
0.994

$$$$
>  <compound>
CC(=O)Oc1ccccc1C(=O)Oc1ccccc1C(=O)O

>  <normalized growth>
0.993

$$$$
>  <compound>
COC1=CC(C)[C@@H]2C[C@H]3OC(=O)C[C@H]4C(C)=C(OC)C(=O)C([C@@]34C)[C@@]2(C)C1=O (some centres undefined)

>  <normalized growth>
1.02

$$$$
>  <compound>
CCc1ccc2c(O)c3c(cc2c1C(=O)OC)C(=O)c1c(O)ccc(O)c1C3=O

>  <normalized growth>
0.958

$$$$
>  <compound>
CCn1nc(C(=O)O)c(=O)c2cc3c(cc21)OCO3

>  <normalized growth>
1.03

$$$$
>  <compound>
CO[C@@H]1C[C@H](O[C@H]2CC[C@]3(C)C4CC[C@]5(C)[C@@H](C6=CC(=O)OC6)CC[C@]5(O)[C@@H]4CC[C@]3(O)C2)O[C@H](C)[C@@H]1O (some centres undefined)

>  <normalized growth>
0.888

$$$$
>  <compound>
CCCCCC(O)C1C(=O)OC(C)C(O)/C=C/C=C/C=C/C=C/C=C(\C)C(O)CC(O)CC(O)CC(O)CC(O)CC(O)CC1O (centres undefined)

>  <normalized growth>
1.04

$$$$
>  <compound>
CC(=O)O[C@@H]1CC2C(C)(C)CCC[C@]2(C)C2CC[C@]3(C)C(=CC(=O)O[C@H]3c3ccoc3)[C@@]21C (some centres undefined)

>  <normalized growth>
0.999

$$$$
>  <compound>
O=C(Oc1ccccc1C(=O)O)c1ccccc1O

>  <normalized growth>
0.977

$$$$

* * *

method_description: chemical genetic growth profiling, strain panel (AID 1159580);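 also: tested at 20 µM; growth read once vehicle control cultures reached saturation at 30 °C; 1 = growth at the plate median or of vehicle wells; lower values mean less growth of the strain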
protocol_conditions: S. cerevisiae deletion strains, growth OD, locus YLR357W, strain rsc2, hits give low values
Among all 5,500 compounds or so, about 2,000 (36%) were called active. Not shown: some 18% with an inconclusive outcome. The list shows a part of the results.
Recorded normalized growth by entry

>  <molecule>
COC(=O)C[C@H]1C(C)(C)[C@@H](O)[C@@H]2CC3=C4CC(O)O[C@@H](c5ccoc5)[C@]4(C)CCC3[C@@]1(C)C2=O (stereo partly drawn)

>  <normalized growth>
1.04

$$$$
>  <molecule>
Oc1ccc([C@H]2Oc3cc(O)cc(O)c3C[C@H]2O)cc1

>  <normalized growth>
0.949

$$$$
>  <molecule>
CCC(=O)OCC(=O)[C@@]1(OC(=O)CC)[C@@H](C)CC2C3CCC4=CC(=O)C=C[C@]4(C)C3(F)[C@@H](O)C[C@@]21C (stereo partly drawn)

>  <normalized growth>
1.02

$$$$
>  <molecule>
CC1(C)O[C@@H]2CC3C4C[C@H](F)C5=CC(=O)CC[C@]5(C)C4[C@@H](O)C[C@]3(C)[C@]2(C(=O)CO)O1 (stereo partly drawn)

>  <normalized growth>
0.968

$$$$
>  <molecule>
CC1Cc2ccccc2N1NC(=O)c1ccc(Cl)c(S(N)(=O)=O)c1 (stereo not drawn)

>  <normalized growth>
1.03

$$$$
>  <molecule>
CCC(=O)O[C@]1(C(=O)CCl)[C@@H](C)CC2C3CCC4=CC(=O)C=C[C@]4(C)[C@@]3(F)[C@@H](O)C[C@@]21C (stereo partly drawn)

>  <normalized growth>
1.05

$$$$
>  <molecule>
Cc1cc(N)c2ccccc2[n+]1CCCCCCCCCC[n+]1c(C)cc(N)c2ccccc21

>  <normalized growth>
0.126

$$$$
>  <molecule>
CC1CCCC(C)N1NC(=O)c1ccc(Cl)c(S(N)(=O)=O)c1 (stereo not drawn)

>  <normalized growth>
1.05

$$$$
>  <molecule>
NCCCC(O)(P(=O)(O)O)P(=O)(O)O

>  <normalized growth>
0.975

$$$$
>  <molecule>
CC(C)=CC1C(CO)C1(C)C (stereo not drawn)

>  <normalized growth>
1.04

$$$$
>  <molecule>
CCC(=O)OCC(=O)C1(OC(=O)CC)C(C)CC2C3CCC4=CC(=O)C=CC4(C)C3(Cl)C(O)CC21C (stereo not drawn)

>  <normalized growth>
1.03

$$$$
>  <molecule>
CC1=C2C(O)C(=O)OC3CC4C(C)(C)C(=O)C=C[C@]4(C)C(CC1)[C@]23C (stereo partly drawn)

>  <normalized growth>
1.02

$$$$
>  <molecule>
Cc1ccccc1N1C(=O)c2cc(S(N)(=O)=O)c(Cl)cc2NC1C (stereo not drawn)

>  <normalized growth>
0.949

$$$$
>  <molecule>
Cc1c(OCC(F)(F)F)ccnc1CS(=O)c1nc2ccccc2[nH]1 (stereo not drawn)

>  <normalized growth>
1.01

$$$$
>  <molecule>
Cc1ncc(CO)c(CO)c1O

>  <normalized growth>
1

$$$$
>  <molecule>
CCCCC(=O)O[C@]1(C(=O)CO)[C@@H](C)CC2C3CCC4=CC(=O)C=C[C@]4(C)[C@@]3(F)C(O)C[C@@]21C (stereo partly drawn)

>  <normalized growth>
1

$$$$
>  <molecule>
Oc1ccc2c3c1OC1[C@@H](O)CC[C@@]4(O)[C@@H](C2)N(CC2CCC2)CC[C@]314 (stereo partly drawn)

>  <normalized growth>
0.967

$$$$
>  <molecule>
COC(=O)[C@H]1[C@H]2C[C@H]3c4[nH]c5cc(OC)ccc5c4CCN3C[C@H]2C[C@@H](OC(=O)c2cc(OC)c(OC)c(OC)c2)[C@@H]1OC

>  <normalized growth>
1

$$$$

* * *

method_description: chemical genetic growth profiling, strain panel (AID 1159580);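 also: tested at 20 µM; growth read once vehicle control cultures reached saturation at 30 °C; 1 = growth at the plate median or of vehicle wells; lower values mean less growth of the strain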
protocol_conditions: S. cerevisiae deletion strains, growth OD, locus YDL185W, strain tfp1, hits give low values
About 2,000 (36%) of roughly 5,500 compounds were called active. About 18% were inconclusive and are not listed. Some of the results follow.

>  <compound>
CC1(C)[C@@H]2CC[C@@]1(C)C(=O)C2

>  <normalized growth>
1

$$$$
>  <compound>
CC(=O)O[C@@H]1CC2C(C)(CC[C@H](O)C2(C)C)C2CC[C@]3(C)C(=CC(=O)O[C@H]3c3ccoc3)C21C (stereo partly drawn)

>  <normalized growth>
1

$$$$
>  <compound>
CC1(C)S[C@@H]2[C@H](NC(=O)C(C(=O)O)c3ccccc3)C(=O)N2[C@H]1C(=O)O (stereo partly drawn)

>  <normalized growth>
0.982

$$$$
>  <compound>
CCCCCC(O)C1C(=O)OC(C)C(O)/C=C/C=C/C=C/C=C/C=C(\C)C(O)CC(O)CC(O)CC(O)CC(O)CC(O)CC1O (stereo not drawn)

>  <normalized growth>
1.03

$$$$
>  <compound>
CCC(=O)OCC(=O)[C@@]1(OC(=O)CC)[C@@H](C)CC2C3CCC4=CC(=O)C=C[C@]4(C)C3(F)[C@@H](O)C[C@@]21C (stereo partly drawn)

>  <normalized growth>
0.927

$$$$
>  <compound>
COC(=O)C(N)CS (stereo not drawn)

>  <normalized growth>
0.966

$$$$
>  <compound>
COC1CC(O[C@H]2CC[C@]3(C=O)C4CC[C@]5(C)C(C6=CC(=O)OC6)CC[C@]5(O)C4CC[C@]3(O)C2)OC(C)C1O (stereo partly drawn)

>  <normalized growth>
0.995

$$$$
>  <compound>
C[C@@H]1CC[C@@]23CCC4(C)[C@@](C=CC5[C@@]6(C)CC[C@H](O)C(C)(C)C6CC[C@]54C)(OC2=O)C3[C@H]1C (stereo partly drawn)

>  <normalized growth>
1.01

$$$$
>  <compound>
CCCCC(=O)O[C@]1(C(=O)CO)[C@@H](C)CC2C3CCC4=CC(=O)C=C[C@]4(C)[C@@]3(F)C(O)C[C@@]21C (stereo partly drawn)

>  <normalized growth>
0.97

$$$$
>  <compound>
CCCc1nn(C)c2c(=O)[nH]c(-c3cc(S(=O)(=O)N4CCN(C)CC4)ccc3OCC)nc12

>  <normalized growth>
1

$$$$
>  <compound>
CC(=O)N1CCCC1C(=O)O (stereo not drawn)

>  <normalized growth>
1.02

$$$$
>  <compound>
CC(C)(C)NCC(O)COc1cccc2c1C[C@H](O)[C@H](O)C2 (stereo partly drawn)

>  <normalized growth>
0.96

$$$$
>  <compound>
NC(N)=Nc1ccc(Cl)cc1

>  <normalized growth>
1.01

$$$$
>  <compound>
CO[C@@H]1[C@@H](OC(N)=O)[C@@H](O)[C@H](Oc2ccc3c(O)c(NC(=O)c4ccc(O)c(CC=C(C)C)c4)c(=O)oc3c2C)OC1(C)C

>  <normalized growth>
0.945

$$$$
>  <compound>
CNC[C@H](O)c1cccc(O)c1

>  <normalized growth>
1.02

$$$$
>  <compound>
CC1(C)O[C@@H]2CC3C4C[C@H](F)C5=CC(=O)CC[C@]5(C)C4[C@@H](O)C[C@]3(C)[C@]2(C(=O)CO)O1 (stereo partly drawn)

>  <normalized growth>
1.01

$$$$
>  <compound>
CC1(C)C(=O)CC[C@@]2(C)C1C[C@@H](O)[C@@]1(C)C3=CC(=O)O[C@@H](c4ccoc4)[C@]3(C)CCC21 (stereo partly drawn)

>  <normalized growth>
1.02

$$$$
>  <compound>
NS(=O)(=O)c1cc2c(cc1C(F)(F)F)NC(Cc1ccccc1)NS2(=O)=O (stereo not drawn)

>  <normalized growth>
1.01

$$$$
